The measured values listed here are drawn from PubChem BioAssay (NCI).

System: HCT-116 colon
Experiment: NCI-60 one-dose screen, 48 h
Settings: 10 µM unless noted
About 83,000 compounds went through this panel and 20% of them were active in at least one assay; those are over-represented in the sample as a whole. Activity calls are given as the source filed them. Rule for the calls: active = growth percent below 10; inactive = the rest.
Possible outcomes: 1.0 (active), 0.0 (inactive)

COMPOUND	DISCRETE LABEL
COc1ncc(-c2ccc3nccc(C#CCCCCC(=O)NO)c3c2)cc1NS(=O)(=O)c1ccc(F)cc1F	1.0
CSc1nc2c(c(=O)n1C)C1(C(=O)N(Cc3ccccc3)c3ccccc31)c1c(nc(SC)n(C)c1=O)N2	0.0
CC(C)=CCC[C@](C)(O)[C@H]1CC[C@]2(C)[C@@H]1CC[C@@H]1[C@@]3(C)CC/C(=N/O)C(C)(C)[C@@H]3CC[C@]12C	1.0
Cn1cc(-c2noc(-c3cn(C)c4ncccc34)n2)c2cc(Cl)ccc21	0.0
O=C(Nc1ccc(Oc2ccc(F)cc2)c(Cl)c1)c1cnccn1	0.0
NC(=S)Cc1ccccc1	0.0
CCCCCCCCCCCCCCNC(=O)Nc1ccc(Cl)c(Cl)c1	0.0
CC(C)(C)OC(=O)N1C=C/C(=C\Cn2cc(-c3ccccc3)nn2)CC1	0.0
CCN(CCNc1ccc(C)c2sc3cc(Cl)ccc3c(=O)c12)CC(C)O (stereo not given)	1.0
COc1cc(-c2nc(SCCC(C)C)nc(Nc3ccc(S(N)(=O)=O)cc3)c2C#N)cc(OC)c1OC	1.0
CC1Cc2c(ncnc2-n2cnc3ccccc32)N(C)c2ccccc21 (stereo not given)	0.0
O=[N+]([O-])c1cc([N+](=O)[O-])c(C(F)(F)F)cc1NN=C(c1ccc(O)cc1)c1ccc(O)cc1	1.0
Nc1cc(N)c(N=Nc2ccc(S(=O)(=O)O)cc2)cc1N=Nc1ccc(-c2ccc(N=Nc3ccc(O)c(C(=O)O)c3)cc2)cc1	0.0
COc1ccc(/C=C2\N=C(Nc3ccccc3)N(NC(=O)c3ccccn3)C2=O)cc1	0.0
FC(F)(F)c1ccc2c(c1)Sc1ccccc1N2	0.0
COc1cc(OC)c(/C=C/C(=O)c2c(N)cc(OC)cc2OC)c(OC)c1	0.0
Nc1nc(Cl)c2ncn(Cc3cc4c(cc3I)OCO4)c2n1	0.0
CC1(C)CC(=O)c2c(ccc(C(=O)C[C@@H](N)CO)c2N)O1	1.0
COCCCNc1nc(NC(=O)c2cc(Br)cc(C(F)(F)F)c2)cc(-c2cccnc2)n1	0.0
O=C(Nc1ccc(C(=O)/C=C/c2ccc(N3CCOCC3)cc2)cc1)Nc1ccc([N+](=O)[O-])cc1	0.0
